- TARGET DESC: Recombinant human HSD17B13 enzyme (Homo sapiens (Human), UniProt Q7Z5P4)
- Sequence (Q7Z5P4 20-300): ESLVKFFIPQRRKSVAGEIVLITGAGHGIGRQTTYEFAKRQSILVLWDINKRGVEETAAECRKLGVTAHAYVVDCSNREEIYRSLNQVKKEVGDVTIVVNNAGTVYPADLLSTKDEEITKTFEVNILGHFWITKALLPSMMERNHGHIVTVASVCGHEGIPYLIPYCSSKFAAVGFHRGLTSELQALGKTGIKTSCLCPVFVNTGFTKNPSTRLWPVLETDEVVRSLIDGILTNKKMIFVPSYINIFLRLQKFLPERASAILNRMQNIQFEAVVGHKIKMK
- ASSAY COMMENT: HSD17b13 NAD(P)H-Glo Biochemical Assay
- TEST PARAMETERS: 50 uM estradiol, 1 mM NAD+; read-out: HSD17β13 IC50
pIC50: −log10 of the molar value.
I'd be grateful if you could share measured pIC50 for these entries.

Worked examples follow.
SMILES STR: Cc1nn(-c2ccc(F)c(O)c2)c2ccc(-c3ccc(O)c(Cl)c3)cc12
pIC50: 6.00 to 7.00
//
SMILES STR: Oc1ccc(-c2ccc3c(cnn3-c3cc(O)c(F)c(F)c3F)c2)cc1Cl
pIC50: 6.00 to 7.00
//
SMILES STR: COCC1(c2ccc3c(cnn3-c3cc(O)c(F)c(F)c3)c2)CCN(S(C)(=O)=O)CC1
pIC50: 6.00 to 7.00
//
SMILES STR: Cc1nn(-c2cc(O)c(F)cc2C#N)c2cnc(N(C)C3CCOCC3)cc12
pIC50: 6.00 to 7.00
//
SMILES STR: CNC(=O)c1nn(-c2cc(C(F)(F)F)c(F)c(O)c2F)c2ccc(N(C)C3CCOCC3)cc12
pIC50: 4.52 to 6.00
//
SMILES STR: O=S(=O)(C1CC1)N1CCN(c2cc3cnn(-c4cc(O)c(F)c(F)c4)c3cc2Cl)CC1
pIC50: 6.00 to 7.00
//
SMILES STR: CC1(C)CC=C(c2ccc3nn(-c4cc(O)c(F)c(C(F)(F)F)c4)cc3c2)CC1
pIC50: 6.00 to 7.00
//
SMILES STR: Oc1cc(-n2ncc3cc(N4CCOCC45CC5)ncc32)cc(C(F)(F)F)c1F
pIC50: 6.00 to 7.00
//
SMILES STR: CS(=O)(=O)N1CCN(c2ccc3c(cnn3-c3cc(O)cc(C(F)(F)F)c3)c2)CC1
pIC50: 6.00 to 7.00
//
SMILES STR: Oc1cc(-c2noc3cc(-c4ccc(O)c(Cl)c4)ccc23)ccc1F
pIC50: 6.00 to 7.00

For each of the compounds below, state pIC50.
1. Cc1nn(-c2cc(O)c(F)c(C(C)(F)F)c2)c2cnc(N3CCOCC34CC4)cc12
2. CS(=O)(=O)N1CCN(c2ccc3c(cnn3-c3ccc(F)c(O)c3)c2)CC1
3. O=C(O)COc1ccc(-c2ccc3c(cnn3-c3ccc(F)c(O)c3)c2)cc1
4. CS(=O)(=O)N1CCC(C#N)(c2ccc3c(cnn3-c3cc(O)c(F)c(F)c3)c2)CC1
5. CS(=O)(=O)N1CCN(c2cc3cnn(-c4cc(O)c(F)cn4)c3cn2)CC1
6. CN(c1ccc2c(c1)c(F)nn2-c1cc(C(F)(F)F)c(F)c(O)c1F)C1CCOCC1
7. Cc1nn(-c2cc(C(F)(F)F)c(F)c(O)c2F)c2cnc(N3CCC(Oc4ccccc4)CC3)cc12

1: 6.00 to 7.00; 2: 4.52 to 6.00; 3: 4.52 to 6.00; 4: 4.52 to 6.00; 5: 4.52 to 6.00; 6: 6.00 to 7.00; 7: 6.00 to 7.00

Hi team, please reply with pIC50 for each item in this list.
1. Cc1nn(-c2cc(C(F)(F)F)c(F)c(O)c2F)c2cc(Cl)c(N(C)C3CCOCC3)nc12
2. Cc1nn(-c2cc(C(F)(F)F)c(F)c(O)c2F)c2cnc(N3CCC(OCCN(C)C)CC3)cc12
3. Oc1cc(-n2ncc3cc(N4CCC(O)CC4)ccc32)ccc1F
4. CNc1nn(-c2cc(C(F)(F)F)c(F)c(O)c2F)c2ccc(N(C)C3CCOCC3)cc12

> 7.00
6.00 to 7.00
4.52 to 6.00
6.00 to 7.00

I have 5 compounds here; please give me pIC50 for each one.
1. Cc1nn(-c2cc(C(F)(F)F)c(F)c(O)c2F)c2cnc(N3CCOCC34CC4)nc12
2. Oc1c(F)c(-n2cnc3cc(N4CCOCC45CC5)ncc32)cc(C(F)(F)F)c1F
3. CN(C)c1nn(-c2cc(C(F)(F)F)c(F)c(O)c2F)c2ccc(N(C)C3CCOCC3)cc12
4. Oc1ccc(-c2ccc3c(cnn3-c3cc(O)c(F)c(C(F)(F)F)c3)c2)cc1Cl
5. Oc1cc(-n2ncc3cc(N4CCC5(CC4)CC5)ncc32)cc(C(F)(F)F)c1F

["6.00 to 7.00", "4.52 to 6.00", "6.00 to 7.00", "> 7.00", "> 7.00"]
